System: MS2 coat protein
METHOD: apparent KD of MS2 coat protein; designed switch direction (-1 OFF switch, 1 ON switch): -1; higher = weaker reporter binding
CONDITION_CONTEXT: input ligand: FMN 200 uM
Outcome label depends on apparent KD of MS2 coat protein relative to 100 nM: at/above gives MET, below gives NOT MET.

AGCGCCAUGCUCGUCUUACACAUGAGGAUCACCCAUGUUGGGUCUCAGAUGCGGUAAUAGCCCGUUGAAUCUAGUGG [Eternabot (L1) Solution 38] (Eterna round: R97, puzzle: Sensor, turn-off variant 1) ... MET
ACGUGAUAUCUGUCGGUGGACAUGAGGAUCACCCAUGUAAGCUUUUUGCUUGUCUUAUAACCCGGUGACAGACCUUC [Inxeer] (Eterna round: R96, puzzle: Sensor v3, turn-off variant 1) ... NOT MET
UAGCAUUGCCAAAGGUAGUGCAUUACAUGAGGAUCACCCAUGUAGGAUAUGGUAGGCAAAGCUUACCAGAAGGACAUGAUAAUU [Mat - Exclusion NG 3 - Mod of JL - D16] (Eterna round: R96, puzzle: Exclusion NG 3) ... MET
ACAUGACUGCUAGGAUAUAGAUGACAUGAGGAUCACCCAUGUUGUCUCAUGUUUAUGGAAACGGACUAGAAGGAGUAGUAUAUG [Ex NG2 #15] (Eterna round: R96, puzzle: Exclusion NG 2) ... NOT MET
CCGGAAAGGAAGGAUAUGCUAGACGAAAGUCUAGCAGAAGGUCCUACAUGAGGAUCACCCAUGUGGCCUCCCGG [Eli x6 4.09] (Eterna round: R97, puzzle: Exclusion 6) ... MET
UCCUGUUAUGUUAGGAUAUCUGGUUCGACUCGAACAGAGAAGGAACAUGAGGAUCACCCAUGUCCCGGUGAUAA [Eternabot (L2) Solution 19] (Eterna round: R97, puzzle: Brourd's mod of Exclusion 4) ... NOT MET

Data request: Has GCUUUUGGGCAAGGAUAUCCUGCGCGGUUCUGGUUCGUGUCUGUCACAUGAGGAUCACCCAUGUGGGAGAAGGUGCCUGUGGUG [Design 71] (Eterna round: R96, puzzle: Exclusion NG 2) a recorded apparent KD of MS2 coat protein greater than or equal to 100 nM?
Data returned: NOT MET

FYI, the data here is from the supplement of paper PMC9170038.
